- ASSAY METHOD TEXT: AUC in B6 mouse at 5 mg/kg, ip
- Type: ADME, organism-based
- ASSAY CONTEXT: in vivo
PARAMETER MEASURED: AUC (ng·h/mL)
Provide the reading as a plain figure in ng·h/mL.

(Q) // query AUC value for entry C=CC(=O)Nc1ccccc1Nc1nc(Nc2ccc(N3CCN(C)CC3)cc2)ncc1C(=O)Nc1c(C)cccc1Cl
(A) 212

###

- STUDY TARGET: Proto-oncogene tyrosine-protein kinase Src (Homo sapiens)
- Sequence (P12931 2-536 limits assumed): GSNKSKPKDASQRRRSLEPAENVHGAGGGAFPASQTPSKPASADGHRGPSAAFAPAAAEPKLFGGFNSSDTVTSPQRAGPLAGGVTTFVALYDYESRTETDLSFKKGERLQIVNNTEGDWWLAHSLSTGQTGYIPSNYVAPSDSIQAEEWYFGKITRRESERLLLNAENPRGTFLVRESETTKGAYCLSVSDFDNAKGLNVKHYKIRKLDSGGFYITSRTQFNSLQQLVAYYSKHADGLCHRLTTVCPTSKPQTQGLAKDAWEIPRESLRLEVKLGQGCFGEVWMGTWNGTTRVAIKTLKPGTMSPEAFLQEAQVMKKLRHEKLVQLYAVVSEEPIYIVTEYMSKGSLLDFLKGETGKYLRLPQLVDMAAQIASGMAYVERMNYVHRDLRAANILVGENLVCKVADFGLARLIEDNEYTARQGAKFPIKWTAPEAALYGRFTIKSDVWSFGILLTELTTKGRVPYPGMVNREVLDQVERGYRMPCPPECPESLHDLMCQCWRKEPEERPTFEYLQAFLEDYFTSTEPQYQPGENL
- ASSAY METHOD TEXT: Inhibition of recombinant human His-tagged full length SRC expressed in baculovirus expression system using tyrosine-2 peptide as substrate incubated for 1 hr by Z'-LYTE assay
PARAMETER MEASURED: IC50

Examples with answers:
(Q) API: value(readout= IC50, system= Proto-oncogene tyrosine-protein kinase Src (Homo sapiens), query= C=CC(=O)Nc1ccccc1Nc1nc(Nc2ccc(N3CCN(C)CC3)cc2)ncc1Cl )
(A) 4 nM

(Q) API: value(readout= IC50, system= Proto-oncogene tyrosine-protein kinase Src (Homo sapiens), query= C=CC(=O)Nc1ccccc1Nc1nc(Nc2ccc(N3CCN(C)CC3)cc2)ncc1OCc1ccc(C)cc1 )
(A) 5 nM

(Q) API: value(readout= IC50, system= Proto-oncogene tyrosine-protein kinase Src (Homo sapiens), query= C=CC(=O)Nc1ccccc1Nc1nc(Nc2ccc(N3CCN(C)CC3)cc2)ncc1OCc1ccc(Oc2ccccc2)cc1 )
(A) 6 nM

(Q) API: value(readout= IC50, system= Proto-oncogene tyrosine-protein kinase Src (Homo sapiens), query= C=CC(=O)Nc1ccccc1Nc1nc(Nc2ccc(N3CCC(N4CCN(C)CC4)CC3)cc2)ncc1C(=O)Nc1c(C)cccc1Cl )
(A) > 10000 nM

(Q) API: value(readout= IC50, system= Proto-oncogene tyrosine-protein kinase Src (Homo sapiens), query= C=CC(=O)Nc1ccccc1Nc1nc(Nc2ccc(N3CCN(C)CC3)cc2)ncc1C(=O)Nc1ccc(Oc2ccccc2)cc1 )
(A) > 3330 nM

(Q) API: value(readout= IC50, system= Proto-oncogene tyrosine-protein kinase Src (Homo sapiens), query= C=CC(=O)Nc1ccccc1Nc1nc(Nc2ccc(N3CCN(C)CC3)cc2)ncc1-c1ccoc1 )
(A) 2 nM

(Q) API: value(readout= IC50, system= Proto-oncogene tyrosine-protein kinase Src (Homo sapiens), query= C=CC(=O)Nc1ccccc1Nc1nc(Nc2ccc(N3CCN(C)CC3)cc2)ncc1OCc1c(C)cccc1Cl )
(A) 3 nM

Kindly review the next compound as well.
(Q) API: value(readout= IC50, system= Proto-oncogene tyrosine-protein kinase Src (Homo sapiens), query= C=CC(=O)Nc1ccccc1Nc1nc(Nc2ccc(N3CCN(C)CC3)cc2)ncc1-c1ccc(C(C)=O)cc1 )
(A) 6 nM

###

- ASSAY METHOD TEXT: Half life in B6 mouse at 5 mg/kg, ip
- Format: ADME, organism-based
- ASSAY CONTEXT: in vivo
PARAMETER MEASURED: half-life (min)
Provide the reading as a plain figure in min.

(Q) // query half-life value for entry C=CC(=O)Nc1ccccc1Nc1nc(Nc2ccc(N3CCN(C)CC3)cc2)ncc1C(=O)Nc1c(C)cccc1Cl
(A) 77.4

###

- STUDY TARGET: UniProt P12931
- ASSAY METHOD TEXT: Inhibition of recombinant human His-tagged full length SRC expressed in baculovirus expression system using tyrosine-2 peptide as substrate incubated for 1 hr by Z'-LYTE assay
// reported IC50 for each item listed
Provide the reading as a plain figure in nM.

Examples with answers:
(Q) // query IC50 value for entry C=CC(=O)Nc1ccccc1Nc1nc(Nc2ccc(N3CCN(C)CC3)cc2)ncc1-c1cccs1
(A) 3

(Q) // query IC50 value for entry C=CC(=O)Nc1ccccc1Nc1nc(Nc2ccc(N3CCN(C)CC3)cc2)ncc1-c1ccc(Oc2ccccc2)cc1
(A) 5

Kindly review the next molecule as well.
(Q) // query IC50 value for entry C=CC(=O)Nc1ccccc1Nc1nc(Nc2ccc(N3CCN(C)CC3)cc2)ncc1-c1ccc(OC)nc1
(A) 6

###

- STUDY TARGET: Fibroblast growth factor receptor 1 (Homo sapiens)
- Sequence (P11362 whole entry, the tested form may be a part): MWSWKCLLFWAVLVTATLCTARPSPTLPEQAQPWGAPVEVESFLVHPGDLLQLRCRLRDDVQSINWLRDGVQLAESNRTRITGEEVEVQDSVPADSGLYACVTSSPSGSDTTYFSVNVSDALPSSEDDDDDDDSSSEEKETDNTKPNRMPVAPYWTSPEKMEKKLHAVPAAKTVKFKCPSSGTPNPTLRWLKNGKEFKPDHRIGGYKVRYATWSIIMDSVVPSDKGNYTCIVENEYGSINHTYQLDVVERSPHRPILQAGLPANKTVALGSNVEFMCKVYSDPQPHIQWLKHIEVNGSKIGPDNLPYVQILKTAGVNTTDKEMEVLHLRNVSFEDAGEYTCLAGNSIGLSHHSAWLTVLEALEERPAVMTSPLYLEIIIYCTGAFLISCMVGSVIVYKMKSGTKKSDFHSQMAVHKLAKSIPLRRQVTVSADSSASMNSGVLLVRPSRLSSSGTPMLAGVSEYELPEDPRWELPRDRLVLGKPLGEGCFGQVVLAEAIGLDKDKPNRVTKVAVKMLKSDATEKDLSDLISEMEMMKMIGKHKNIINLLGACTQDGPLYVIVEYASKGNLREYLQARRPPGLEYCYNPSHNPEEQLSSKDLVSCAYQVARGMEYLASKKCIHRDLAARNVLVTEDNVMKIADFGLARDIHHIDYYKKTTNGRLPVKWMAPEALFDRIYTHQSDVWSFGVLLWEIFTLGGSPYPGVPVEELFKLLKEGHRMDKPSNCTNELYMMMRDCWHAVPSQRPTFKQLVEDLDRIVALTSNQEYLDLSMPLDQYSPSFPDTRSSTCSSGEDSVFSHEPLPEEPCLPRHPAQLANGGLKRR
- ASSAY METHOD TEXT: Inhibition of recombinant human His-tagged FGFR1 (308 to 731 residues) expressed in baculovirus expression system using tyrosine-4 peptide as substrate incubated for 1 hr by Z'-LYTE assay
// reported IC50 for each item listed
Provide the reading as a plain figure in nM.

Examples with answers:
(Q) // query IC50 value for entry C=CC(=O)Nc1ccccc1Nc1nc(Nc2ccc(N3CCN(C)CC3)cc2)ncc1Cl
(A) 54

(Q) // query IC50 value for entry C=CC(=O)Nc1ccccc1Nc1nc(Nc2ccc(N3CCN(C)CC3)cc2)ncc1-c1ccc(C(C)=O)cc1
(A) 72

(Q) // query IC50 value for entry C=CC(=O)Nc1ccccc1Nc1nc(Nc2ccc(N3CCN(C)CC3)cc2)ncc1C(=O)Nc1c(C)cccc1Cl
(A) 8340

(Q) // query IC50 value for entry C=CC(=O)Nc1ccccc1Nc1nc(Nc2ccc(N3CCN(C)CC3)cc2)ncc1C(=O)Nc1cc(OC)c(OC)cc1C
(A) 6710

(Q) // query IC50 value for entry C=CC(=O)Nc1ccccc1Nc1nc(Nc2ccc(N3CCN(C)CC3)cc2)ncc1OCc1ccc(C)cc1
(A) 119

---
(Q) // query IC50 value for entry C=CC(=O)Nc1ccccc1Nc1nc(Nc2ccc(N3CCN(C)CC3)cc2)ncc1-c1cccs1
(A) 17

(Q) // query IC50 value for entry C=CC(=O)Nc1ccccc1Nc1nc(Nc2ccc(N3CCN(C)CC3)cc2)ncc1OCc1c(C)cccc1Cl
(A) 373

(Q) // query IC50 value for entry C=CC(=O)Nc1ccccc1Nc1nc(Nc2ccc(N3CCN(C)CC3)cc2)ncc1C(=O)Nc1c(Cl)c(OC)cc(OC)c1Cl
(A) 391

(Q) // query IC50 value for entry C=CC(=O)Nc1ccccc1Nc1nc(Nc2ccc(N3CCN(C)CC3)cc2)ncc1-c1ccoc1
(A) 12

(Q) // query IC50 value for entry C=CC(=O)Nc1ccccc1Nc1nc(Nc2ccc(N3CCN(C)CC3)cc2)ncc1-c1ccc(OC)nc1
(A) 20

(Q) // query IC50 value for entry C=CC(=O)Nc1ccccc1Nc1nc(Nc2ccc(N3CCN(C)CC3)cc2)ncc1-c1ccc(Oc2ccccc2)cc1
(A) 89

(Q) // query IC50 value for entry C=CC(=O)Nc1ccccc1Nc1nc(Nc2ccc(N3CCN(C)CC3)cc2)ncc1OCc1ccc(Oc2ccccc2)cc1
(A) 1050

###

- STUDY TARGET: Mitogen-activated protein kinase kinase kinase 7 (Homo sapiens)
- Sequence (O43318 whole entry, the tested form may be a part): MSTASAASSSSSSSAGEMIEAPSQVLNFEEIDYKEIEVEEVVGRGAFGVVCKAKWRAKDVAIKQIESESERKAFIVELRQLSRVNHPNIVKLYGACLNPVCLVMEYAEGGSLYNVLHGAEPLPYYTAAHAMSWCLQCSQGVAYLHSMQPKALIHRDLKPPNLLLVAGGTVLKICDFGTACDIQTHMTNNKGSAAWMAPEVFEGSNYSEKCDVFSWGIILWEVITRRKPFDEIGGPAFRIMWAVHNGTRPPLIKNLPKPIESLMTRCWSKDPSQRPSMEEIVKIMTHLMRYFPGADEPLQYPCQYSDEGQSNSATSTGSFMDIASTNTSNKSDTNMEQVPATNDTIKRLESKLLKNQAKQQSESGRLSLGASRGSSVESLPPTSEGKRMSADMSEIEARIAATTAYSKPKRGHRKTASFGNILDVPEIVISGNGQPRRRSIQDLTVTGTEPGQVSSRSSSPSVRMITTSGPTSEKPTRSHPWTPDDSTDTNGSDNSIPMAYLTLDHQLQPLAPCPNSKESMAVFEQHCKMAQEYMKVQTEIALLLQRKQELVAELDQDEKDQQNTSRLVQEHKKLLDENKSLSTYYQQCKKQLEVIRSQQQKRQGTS
- ASSAY METHOD TEXT: Inhibition of tracer 222 binding to recombinant human His-tagged TAK1 (437 to 504 residues) expressed in baculovirus expression system […] incubated for 60 mins by Lanthascreen assay
// reported log10 of IC50 for each item listed
Response schema: value (number) is log10 of IC50 in units of nM.

Examples with answers:
(Q) API: value(readout= log10 of IC50, system= Mitogen-activated protein kinase kinase kinase 7 (Homo sapiens), query= C=CC(=O)Nc1ccccc1Nc1nc(Nc2ccc(N3CCN(C)CC3)cc2)ncc1-c1ccc(Oc2ccccc2)cc1 )
(A) 3.74

(Q) API: value(readout= log10 of IC50, system= Mitogen-activated protein kinase kinase kinase 7 (Homo sapiens), query= C=CC(=O)Nc1ccccc1Nc1nc(Nc2ccc(N3CCN(C)CC3)cc2)ncc1-c1ccoc1 )
(A) 2.35

---
(Q) API: value(readout= log10 of IC50, system= Mitogen-activated protein kinase kinase kinase 7 (Homo sapiens), query= C=CC(=O)Nc1ccccc1Nc1nc(Nc2ccc(N3CCN(C)CC3)cc2)ncc1-c1ccc(C(C)=O)cc1 )
(A) 3.17

(Q) API: value(readout= log10 of IC50, system= Mitogen-activated protein kinase kinase kinase 7 (Homo sapiens), query= C=CC(=O)Nc1ccccc1Nc1nc(Nc2ccc(N3CCN(C)CC3)cc2)ncc1-c1cccs1 )
(A) 2.73

(Q) API: value(readout= log10 of IC50, system= Mitogen-activated protein kinase kinase kinase 7 (Homo sapiens), query= C=CC(=O)Nc1ccccc1Nc1nc(Nc2ccc(N3CCN(C)CC3)cc2)ncc1-c1ccc(OC)nc1 )
(A) 3.28

###

- STUDY TARGET: Fibroblast growth factor receptor 1 (Homo sapiens)
- ASSAY METHOD TEXT: Inhibition of recombinant human His-tagged FGFR1 (308 to 731 residues) expressed in baculovirus expression system using tyrosine-4 peptide as substrate incubated for 1 hr by Z'-LYTE assay
PARAMETER MEASURED: IC50

(Q) // query IC50 value for entry C=CC(=O)Nc1ccccc1Nc1nc(Nc2ccc(N3CCN(C)CC3)cc2)ncc1C(=O)Nc1ccccc1CC
(A) > 10 µM

---
(Q) // query IC50 value for entry C=CC(=O)Nc1ccccc1Nc1nc(Nc2ccc(N3CCN(C)CC3)cc2)ncc1C(=O)Nc1c(C)cc(Cl)cc1Cl
(A) > 10 µM

(Q) // query IC50 value for entry C=CC(=O)Nc1ccccc1Nc1nc(Nc2ccc(N3CCN(C)CC3)cc2)ncc1C(=O)Nc1ccc(Oc2ccccc2)cc1
(A) > 10 µM

(Q) // query IC50 value for entry C=CC(=O)Nc1ccccc1Nc1nc(Nc2ccc(N3CCN(C)CC3)cc2)ncc1C(=O)Nc1c(C)cc(C)cc1Cl
(A) > 3.33 µM

(Q) // query IC50 value for entry C=CC(=O)Nc1ccccc1Nc1nc(Nc2ccc(N3CCN(C)CC3)cc2)ncc1C(=O)Nc1c(C)cc(C#N)cc1Cl
(A) > 10 µM

(Q) // query IC50 value for entry C=CC(=O)Nc1ccccc1Nc1nc(Nc2ccc(N3CCN(C)CC3)cc2)ncc1C(=O)Nc1cc(C)cc(Cl)c1
(A) > 10 µM
